Give measured CHK1^b for each item. Keep answers brief.
molecular target: FL-CHK1 (Homo sapiens, UniProt O14757); construct: C-terminally His-tagged full-length human CHK1 (FL-CHK1); 6xHis (C); made in house; host or cells: baculovirus/insect cells; test: CHK1 assay; type: biochemical; parameters: unit not given here; details: Table A combinatorial examples; footnote b not given
Sequence (O14757 whole entry): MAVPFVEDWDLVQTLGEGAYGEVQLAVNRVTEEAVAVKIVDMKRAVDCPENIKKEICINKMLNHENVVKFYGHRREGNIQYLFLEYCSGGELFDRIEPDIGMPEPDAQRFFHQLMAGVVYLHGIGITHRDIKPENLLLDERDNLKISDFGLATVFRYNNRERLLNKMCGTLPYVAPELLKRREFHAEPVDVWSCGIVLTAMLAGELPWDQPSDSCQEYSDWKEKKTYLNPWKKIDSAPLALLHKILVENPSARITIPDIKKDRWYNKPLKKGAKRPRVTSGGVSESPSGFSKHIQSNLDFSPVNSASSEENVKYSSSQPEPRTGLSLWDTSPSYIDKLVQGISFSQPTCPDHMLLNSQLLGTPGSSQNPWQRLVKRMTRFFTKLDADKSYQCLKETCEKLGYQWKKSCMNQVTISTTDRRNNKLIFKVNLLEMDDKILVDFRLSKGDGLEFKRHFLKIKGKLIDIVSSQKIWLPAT
I'd appreciate a reply containing only the number, no unit.

CHK1^b reported for this compound "COc1cc(Nc2nc(N)c(-c3nc(-c4ccc(C#N)cc4)cs3)s2)cc(OC)c1OC" : 10.3

The recorded CHK1^b for "COc1cc(Nc2nc(N)c(-c3nc(-c4ccc(F)cc4)cs3)s2)cc(OC)c1OC" is 48.3

The recorded CHK1^b for entry "COc1cc(Nc2nc(N)c(-c3nc(-c4csc5ccccc45)cs3)s2)cc(OC)c1OC" equals 13.2

Field CHK1^b (entry "COc1ccc(-c2csc(-c3sc(Nc4cc(OC)c(OC)c(OC)c4)nc3N)n2)c(OC)c1" ) reads 9.9

// field: CHK1^b; key: "COc1cccc(-c2csc(-c3sc(Nc4cc(OC)c(OC)c(OC)c4)nc3N)n2)c1" ; value = 21.2

Per the records, this compound ( COc1cc(Nc2nc(N)c(-c3nc(-c4ccc(F)cc4F)cs3)s2)cc(OC)c1OC [drawing 382] ) has CHK1^b equal to 32.5

# CHK1^b (compound: COc1cc(Nc2nc(N)c(-c3nc(-c4ccccc4)cs3)s2)cc(OC)c1OC [drawing 358] ) is 21.1

# CHK1^b of "COc1cc(Nc2nc(N)c(-c3nc(-c4cc5cc(Cl)ccc5o4)cs3)s2)cc2c1OCCO2" = 25.4

Record summary for "COc1cc(Nc2nc(N)c(-c3nc(-c4ccc(Cl)c(Cl)c4)cs3)s2)cc(OC)c1OC" : reported CHK1^b = 12.1

----------
So I've got a bunch of compounds here, and I need their inhibition at 20 µM values.
molecular target: phosphorylated VEGF-R2Δ50 (FLVK-P) (Homo sapiens, UniProt P35968, DEL940-989/E990V); construct: VEGF-R2Δ50 contains residues 806-939 and 990-1171; made in house; host or cells: baculovirus/insect cells; test: VEGF-R2 coupled spectrophotometric (FLVK-P) assay; format: biochemical; details: read-out: VEGF % inhibition at 20 μM, 20 μM; combinatorial library compounds
Sequence (P35968 with tags, fused parts or gaps DEL940-989/E990V limits assumed): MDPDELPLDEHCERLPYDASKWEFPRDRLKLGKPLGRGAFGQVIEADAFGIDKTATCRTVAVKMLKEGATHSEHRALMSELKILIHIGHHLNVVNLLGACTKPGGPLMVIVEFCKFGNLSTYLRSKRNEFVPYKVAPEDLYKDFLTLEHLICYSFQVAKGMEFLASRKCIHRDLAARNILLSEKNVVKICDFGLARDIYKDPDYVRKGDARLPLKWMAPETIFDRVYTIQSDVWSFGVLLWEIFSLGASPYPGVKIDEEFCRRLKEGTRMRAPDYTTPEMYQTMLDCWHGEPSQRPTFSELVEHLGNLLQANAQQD
A number alone suffices; assume %.

// inhibition at 20 µM value for "CC(C)c1ccc(Nc2nc(N)c(-c3nc(-c4csc5ccccc45)cs3)s2)cc1" : 25

The value of inhibition at 20 µM measured for the compound "Cc1cc(-c2csc(-c3sc(Nc4ccc(S(N)(=O)=O)cc4)nc3N)n2)cs1" turned out to be 34

Reported inhibition at 20 µM for "CCOC(=O)c1ccccc1-c1csc(-c2sc(Nc3ccc(N(C)C)cc3)nc2N)n1" was 25

The value of inhibition at 20 µM measured for the compound "CN(C)c1ccc(Nc2nc(N)c(-c3nc(-c4ccc5c(c4)C(C)(C)CCC5(C)C)cs3)s2)cc1" turned out to be 18

What the record says about "CC(C)c1ccc(Nc2nc(N)c(-c3nc(-c4c(Cl)cc(C(F)(F)F)cc4Cl)cs3)s2)cc1" : inhibition at 20 µM is 31

Field inhibition at 20 µM (entry "CC(C)c1ccc(Nc2nc(N)c(-c3nc(-c4ccc(C(F)(F)F)cc4)cs3)s2)cc1" ) reads -4

The recorded inhibition at 20 µM for "CN(C)c1ccc(Nc2nc(N)c(-c3nc(-c4ccc(O)c(O)c4)cs3)s2)cc1" is 34

Noted for "Cc1ccc(-c2csc(-c3sc(Nc4ccc(C(C)C)cc4)nc3N)n2)cc1" : its inhibition at 20 µM reads -2

Sure, the documented inhibition at 20 µM for "CN(C)c1ccc(Nc2nc(N)c(-c3nc(-c4ccc(-c5ccc(Cl)cc5Cl)o4)cs3)s2)cc1" is 5

Given item "CN(C)c1ccc(Nc2nc(N)c(-c3nc(-c4ccc(F)cc4)cs3)s2)cc1" , the value recorded as its inhibition at 20 µM is 41

The compound identified as "Nc1nc(Nc2ccc(S(N)(=O)=O)cc2)sc1-c1nc(-c2ccccc2[N+](=O)[O-])cs1" registered its inhibition at 20 µM at 47

Lab note: measured inhibition at 20 µM of "Nc1nc(Nc2ccc(S(N)(=O)=O)cc2)sc1-c1nc(-c2ccc3c(c2)OCCO3)cs1" was 29

The measured inhibition at 20 µM associated with "Cc1ccc(-c2csc(-c3sc(Nc4ccc(N(C)C)cc4)nc3N)n2)cc1" reads 16

Sample "Nc1nc(Nc2ccc(S(N)(=O)=O)cc2)sc1-c1nc(-c2ccc3ccccc3c2)cs1" ; inhibition at 20 µM observed: 12

Record "CN(C)c1ccc(Nc2nc(N)c(-c3nc(-c4ccc[nH]4)cs3)s2)cc1" , field inhibition at 20 µM: 28

Record summary for COc1ccc(-c2csc(-c3sc(Nc4ccc(N(C)C)cc4)nc3N)n2)cc1 [drawing 525] : reported inhibition at 20 µM = 13

Per the records, this compound ( "Nc1nc(Nc2ccc(S(N)(=O)=O)cc2)sc1-c1nc(-c2ccc(Cl)cc2)cs1" ) has inhibition at 20 µM equal to 27

inhibition at 20 µM reported for this compound "CC(C)c1ccc(Nc2nc(N)c(-c3nc(-c4cc(C(=O)C(Cl)(Cl)Cl)n(C)c4)cs3)s2)cc1" : -3

The reported inhibition at 20 µM of the compound Nc1nc(Nc2ccc(S(N)(=O)=O)cc2)sc1-c1nc(-c2ccc(O)cc2)cs1 [drawing 415] was 56

----------
What CDK2^c was measured for each of the following?
molecular target: CDK2/Cyclin A complex (Homo sapiens, UniProt P24941); test: CDK2/Cyclin A assay; format: biochemical; parameters: concentration or dose not given beside the values; settings: Table A combinatorial examples; footnote c not given
Just the number.

Field CDK2^c (entry COc1cc(Nc2nc(N)c(-c3nc(-c4ccc(F)cc4F)cs3)s2)cc(OC)c1OC [drawing 382] ) reads −12.1

The recorded CDK2^c for "COc1ccc(-c2csc(-c3sc(Nc4cc(OC)c(OC)c(OC)c4)nc3N)n2)c(OC)c1" is 4.9

The reported CDK2^c of the compound "COc1cc(Nc2nc(N)c(-c3nc(-c4cc(Br)c(Cl)s4)cs3)s2)cc(OC)c1OC" was −0.2

CDK2^c recorded for this compound, "COc1cc(Nc2nc(N)c(-c3nc(-c4c(Cl)cc(C(F)(F)F)cc4Cl)cs3)s2)cc(OC)c1OC" , is −6

Lab note: "COc1cc(Nc2nc(N)c(-c3nc(-c4ccc5c(c4)CCC(=O)N5)cs3)s2)cc2c1OCCO2" gave CDK2^c of −7.8

Sure, the documented CDK2^c for COc1cc(Nc2nc(N)c(-c3nc(-c4sc5ccc(Cl)cc5c4C)cs3)s2)cc2c1OCCO2 [drawing 363] is 12

COc1ccc(-c2csc(-c3sc(Nc4cc(OC)c(OC)c(OC)c4)nc3N)n2)cc1 [drawing 362] yielded CDK2^c of 1.7

CDK2^c reading for "COc1cc(Nc2nc(N)c(-c3nc(-c4ccc(C)cc4)cs3)s2)cc(OC)c1OC" : −2.1

Looking up "COc1cc(Nc2nc(N)c(-c3nc(-c4ccc(F)c(F)c4)cs3)s2)cc(OC)c1OC" , I found its CDK2^c recorded as −5

----------
reported_property: melting point

Input "COc1cc(Nc2nc(N)c(-c3nc(-c4ccc(Cl)c(O)c4)cs3)s2)cc(OC)c1OC" . Output melting point: 235 to 238 °C

melting point measured on "Cc1sc(-c2sc(Nc3ccc(S(N)(=O)=O)cc3)nc2N)nc1-c1ccc(F)cc1" = 145 to 148 °C (dec.)

Looking up "COc1ccc(/C=C/c2csc(-c3sc(Nc4ccc(S(N)(=O)=O)cc4)nc3N)n2)cc1O" , I found its melting point recorded as 190 to 193 °C (dec.)

The molecule "Nc1nc(Nc2ccc(S(N)(=O)=O)cc2)sc1-c1nc(-c2cc(-c3ccc(Cl)cc3Cl)co2)cs1" showed melting point equal to 225 to 230 °C (dec.)

Entry "Nc1nc(Nc2ccc(S(N)(=O)=O)cc2)sc1-c1nc(-c2ccc(F)cc2)cs1" ; melting point = 254 to 257 °C

The measured melting point associated with "COc1cc(Nc2nc(N)c(-c3nc(-c4cccc(O)c4)cs3)s2)cc(OC)c1OC" reads 226 to 230 °C

melting point recorded for this molecule, "COc1cc(Nc2nc(N)c(-c3nc(-c4cc(O)cc(O)c4)cs3)s2)cc(OC)c1OC" , is 198 to 202 °C

Form: molecule = "COc1cc(Nc2nc(N)c(-c3nc(-c4cccc(N)c4)cs3)s2)cc(OC)c1OC" ; melting point = 205 to 210 °C (dec.)
